Biological target: hCA IX (Homo sapiens)
Construct: gene CA9; recombinant
Assay: stopped-flow CO2 hydration assay
Type: biochemical
Would you mind telling me the reported Ki of each entry?

The measured Ki associated with NS(=O)(=O)c1ccc(CCNc2nc(NCc3ccc(S(N)(=O)=O)cc3)nc(Nc3ccc(/C=C/c4ccccc4O)cc3)n2)cc1 reads 2720 nM

Recorded result, NS(=O)(=O)c1ccc(Nc2nc(NCCCO)nc(Nc3ccc(/C=C/c4cccc(O)c4)cc3)n2)cc1 , Ki: 27.5 nM

For record NS(=O)(=O)c1ccc(CCNc2nc(NCCCO)nc(Nc3ccc(C(=O)/C=C/c4ccccc4O)cc3)n2)cc1 the listed Ki is > 10000 nM

Reported Ki of NS(=O)(=O)c1ccc(CCNc2nc(NCc3ccc(S(N)(=O)=O)cc3)nc(Nc3ccc(/C=C/c4cccc(O)c4)cc3)n2)cc1 : 20.3 nM

Please fill in: Ki reported for NS(=O)(=O)c1ccc(CCNc2nc(Nc3ccc(O)cc3)nc(Nc3ccc(/C=C/c4ccccc4O)cc3)n2)cc1 = 238 nM

Quick note, Ki for NS(=O)(=O)c1ccc(CNc2nc(NCCCO)nc(Nc3ccc(C(=O)/C=C/c4ccccc4)cc3)n2)cc1 landed at 4630 nM

* * *

Target: hCA VII (Homo sapiens, UniProt P43166)
Construct: gene CA7; recombinant
Sequence (P43166 whole entry): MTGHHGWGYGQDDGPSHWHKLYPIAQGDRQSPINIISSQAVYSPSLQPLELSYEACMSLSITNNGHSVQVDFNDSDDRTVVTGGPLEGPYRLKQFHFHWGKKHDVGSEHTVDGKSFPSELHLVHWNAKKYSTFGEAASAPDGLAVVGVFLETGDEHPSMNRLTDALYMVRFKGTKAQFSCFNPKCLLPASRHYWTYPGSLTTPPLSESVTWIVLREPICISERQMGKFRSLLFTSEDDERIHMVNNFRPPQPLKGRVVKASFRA
Experiment: stopped-flow CO2 hydration assay
Assay type: biochemical
Lab note: cut-off is 200 nM. Strictly less in Ki is Condition met. Exactly 200 nM or more is Condition not met.

Problem: Consider the compound NS(=O)(=O)c1ccc(CCNc2nc(NCCCO)nc(Nc3ccc(C(=O)/C=C/c4cccc(O)c4)cc3)n2)cc1 . Is its Ki strictly less than 200 nM?
Result: Condition met

Problem: Hello, I'm reviewing records and need to know if Ki of NS(=O)(=O)c1ccc(CCNc2nc(NCCCO)nc(Nc3ccc(C(=O)/C=C/c4ccc(O)cc4)cc3)n2)cc1 is below 200 nM. Could you check?
Result: Condition not met

Problem: Quick check: does NS(=O)(=O)c1ccc(CNc2nc(NCCCO)nc(Nc3ccc(C(=O)/C=C/c4ccccc4)cc3)n2)cc1 have Ki under 200 nM?
Result: Condition met

Problem: is_below(Ki, 200 nM) for NS(=O)(=O)c1ccc(Nc2nc(Cl)nc(NCCCO)n2)cc1 ?
Result: Condition met

Problem: Could you please tell me whether Ki recorded for NS(=O)(=O)c1ccc(CCNc2nc(Nc3ccc(O)cc3)nc(Nc3ccc(C(=O)/C=C/c4ccccc4O)cc3)n2)cc1 is less than 200 nM?
Result: Condition not met

Problem: In the record for NS(=O)(=O)c1ccc(CNc2nc(NCCCO)nc(Nc3ccc(C(=O)/C=C/c4ccccc4O)cc3)n2)cc1 , is Ki less than 200 nM?
Result: Condition met

* * *

Molecular target: hCA I (Homo sapiens, UniProt P00915)
Construct: gene CA1; recombinant
Sequence (P00915 2-261): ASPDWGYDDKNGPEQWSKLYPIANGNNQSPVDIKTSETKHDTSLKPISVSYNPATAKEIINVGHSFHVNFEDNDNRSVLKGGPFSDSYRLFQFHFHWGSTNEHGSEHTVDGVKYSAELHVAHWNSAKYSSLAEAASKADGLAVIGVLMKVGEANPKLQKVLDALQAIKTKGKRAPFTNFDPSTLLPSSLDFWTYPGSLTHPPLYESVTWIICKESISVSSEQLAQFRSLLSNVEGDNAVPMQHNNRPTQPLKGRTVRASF
Test: biochemical
Parameters: stopped-flow CO2 hydration assay, phenol red indicator at 557 nm, 15 min preincubation with inhibitor
Observable: Ki (nM)
Hi! Could you send only the number? It should be in nM, unit omitted.

Value of Ki reported for the compound NS(=O)(=O)c1ccc(CNc2nc(NCC(O)CO)nc(Nc3ccc(C(=O)/C=C/c4ccc(O)cc4)cc3)n2)cc1 (stereo not shown) [compound 28, 28] is 8220

* * *

Target: hCA II (Homo sapiens)
Construct: gene CA2; recombinant
Assay: stopped-flow CO2 hydration assay
Type: biochemical
Observable: Ki (nM)
Please state the figure in nM; there is no need to write the unit.

NS(=O)(=O)c1ccc(CCNc2nc(NCc3ccc(S(N)(=O)=O)cc3)nc(Nc3ccc(/C=C/c4ccccc4O)cc3)n2)cc1 on hCA II (Homo sapiens) gives Ki = 82

Value sought: Ki, system hCA II (Homo sapiens), item NS(=O)(=O)c1ccc(CCNc2nc(Nc3ccc(O)cc3)nc(Nc3ccc(C(=O)/C=C/c4cccc(O)c4)cc3)n2)cc1 . Result: 1340

Record NS(=O)(=O)c1ccc(CCNc2nc(NCCc3ccc(S(N)(=O)=O)cc3)nc(Nc3ccc(/C=C/c4cccc(O)c4)cc3)n2)cc1 has hCA II (Homo sapiens) Ki equal to 41.4

Lab entry: hCA II (Homo sapiens) assay, compound NS(=O)(=O)c1ccc(CCNc2nc(NCCCO)nc(Nc3ccc(C(=O)/C=C/c4cccc(O)c4)cc3)n2)cc1 , Ki = 4130

Form field, Ki with hCA II (Homo sapiens), item NS(=O)(=O)c1ccc(CCNc2nc(Nc3ccc(O)cc3)nc(Nc3ccc(C(=O)/C=C/c4ccccc4)cc3)n2)cc1 : 3160

Entry NS(=O)(=O)c1ccc(CNc2nc(NCCCO)nc(Nc3ccc(C(=O)/C=C/c4ccccc4O)cc3)n2)cc1 ; assay system hCA II (Homo sapiens); Ki recorded at 35.4

hCA II (Homo sapiens) data for NS(=O)(=O)c1ccc(CCNc2nc(NCCCO)nc(Nc3ccc(C(=O)/C=C/c4ccccc4O)cc3)n2)cc1 ; its Ki: 939

* * *

I'd appreciate it if you could supply Ki values for the items below.
Target: hCA XII (Homo sapiens)
Construct: gene CA12; recombinant
Sequence (O43570 25-354): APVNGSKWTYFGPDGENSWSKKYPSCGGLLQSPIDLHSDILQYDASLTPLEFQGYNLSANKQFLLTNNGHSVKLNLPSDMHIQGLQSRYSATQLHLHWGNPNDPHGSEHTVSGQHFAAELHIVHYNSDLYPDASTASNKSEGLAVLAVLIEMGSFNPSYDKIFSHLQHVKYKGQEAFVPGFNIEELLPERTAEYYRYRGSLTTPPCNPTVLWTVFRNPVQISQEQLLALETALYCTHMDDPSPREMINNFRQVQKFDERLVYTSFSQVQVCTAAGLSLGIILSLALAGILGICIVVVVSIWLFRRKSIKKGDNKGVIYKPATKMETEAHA
Assay: stopped-flow CO2 hydration assay
Format: biochemical
State the answer as a number, implicitly in nM.

Item: NS(=O)(=O)c1ccc(CCNc2nc(NCCCO)nc(Nc3ccc(/C=C/c4cccc(O)c4)cc3)n2)cc1 | Ki: 601

Lab note: measured Ki of NS(=O)(=O)c1ccc(CCNc2nc(NCC(O)CO)nc(Nc3ccc(/C=C/c4ccc(O)cc4)cc3)n2)cc1 (stereo not shown) was 9.7

Ki for NS(=O)(=O)c1ccc(CCNc2nc(NCC(O)CO)nc(Nc3ccc(/C=C/c4ccccc4O)cc3)n2)cc1 (stereo not shown) is 8.5

Looking up NS(=O)(=O)c1ccc(CCNc2nc(NCc3ccc(S(N)(=O)=O)cc3)nc(Nc3ccc(/C=C/c4ccc(O)cc4)cc3)n2)cc1 , I found its Ki recorded as 10

// NS(=O)(=O)c1ccc(CCNc2nc(NCc3ccc(S(N)(=O)=O)cc3)nc(Nc3ccc(/C=C/c4ccccc4O)cc3)n2)cc1 : Ki value = 8.3

The recorded Ki for entry NS(=O)(=O)c1ccc(CNc2nc(NCCCO)nc(Nc3ccc(/C=C/c4cccc(O)c4)cc3)n2)cc1 equals 493

GET /value?item= NS(=O)(=O)c1ccc(CCNc2nc(NCCCO)nc(Nc3ccc(/C=C/c4ccccc4)cc3)n2)cc1 &field=Ki returns 7.6

Quick note, Ki for NS(=O)(=O)c1ccc(CCNc2nc(NCc3ccc(S(N)(=O)=O)cc3)nc(Nc3ccc(/C=C/c4cccc(O)c4)cc3)n2)cc1 landed at 60.5

Ki measured on NS(=O)(=O)c1ccc(CCNc2nc(Nc3ccc(O)cc3)nc(Nc3ccc(/C=C/c4ccccc4O)cc3)n2)cc1 = 37.1

Entry NS(=O)(=O)c1ccc(CCNc2nc(Nc3ccc(O)cc3)nc(Nc3ccc(/C=C/c4ccc(O)cc4)cc3)n2)cc1 ; Ki = 702

* * *

For each record, write down the corresponding Ki.
Target: hCA IX (Homo sapiens)
Construct: gene CA9; recombinant
Test: stopped-flow CO2 hydration assay
Format: biochemical
Kindly provide the numeric value in nM only, without the unit symbol.

For this compound ( NS(=O)(=O)c1ccc(CNc2nc(NCCCO)nc(Nc3ccc(/C=C/c4cccc(O)c4)cc3)n2)cc1 ), measured Ki is 22.2

Ki measured on NS(=O)(=O)c1ccc(CCNc2nc(NCc3ccc(S(N)(=O)=O)cc3)nc(Nc3ccc(/C=C/c4ccc(O)cc4)cc3)n2)cc1 = 249

Input NS(=O)(=O)c1ccc(CCNc2nc(Nc3ccc(O)cc3)nc(Nc3ccc(/C=C/c4ccc(O)cc4)cc3)n2)cc1 . Output Ki: 25.7

* * *

Target: hCA II (Homo sapiens)
Construct: gene CA2; recombinant
Assay: stopped-flow CO2 hydration assay
Format: biochemical
Excerpt: stopped-flow CO2 hydration assay on hCA II
Observable: Ki
Numeric answer plus unit only.

Entry NS(=O)(=O)c1ccc(CCNc2nc(Nc3ccc(O)cc3)nc(Nc3ccc(C(=O)/C=C/c4ccc(O)cc4)cc3)n2)cc1 ; Ki = 730 nM

// field: Ki; key: NS(=O)(=O)c1ccc(CNc2nc(NCCCO)nc(Nc3ccc(/C=C/c4cccc(O)c4)cc3)n2)cc1 ; value = 46.8 nM

Reported Ki ( NS(=O)(=O)c1ccc(CCNc2nc(NCC(O)CO)nc(Nc3ccc(C(=O)/C=C/c4ccccc4O)cc3)n2)cc1 (stereo not drawn) ) = 83 nM

In plain terms, NS(=O)(=O)c1ccc(CCNc2nc(Nc3ccc(O)cc3)nc(Nc3ccc(/C=C/c4ccc(O)cc4)cc3)n2)cc1 has a documented Ki of 4840 nM

For reference, reported Ki for NS(=O)(=O)c1ccc(CNc2nc(NCCCO)nc(Nc3ccc(C(=O)/C=C/c4ccc(O)cc4)cc3)n2)cc1 stands at 36 nM

GET /value?item= NS(=O)(=O)c1ccc(Nc2nc(Cl)nc(NCCCO)n2)cc1 &field=Ki returns 44.8 nM

Given item NS(=O)(=O)c1ccc(CNc2nc(NCCCO)nc(Nc3ccc(C(=O)/C=C/c4cccc(O)c4)cc3)n2)cc1 , the value recorded as its Ki is 3020 nM

GET /value?item= NS(=O)(=O)c1ccc(CCNc2nc(NCC(O)CO)nc(Nc3ccc(/C=C/c4ccc(O)cc4)cc3)n2)cc1 (stereo not drawn) &field=Ki returns 96.3 nM

Query NS(=O)(=O)c1ccc(CCNc2nc(NCCCO)nc(Nc3ccc(C(=O)/C=C/c4ccc(O)cc4)cc3)n2)cc1 yields Ki of 28.8 nM
